Where these numbers come from: patent US8546443B2

TARGET UNDER TEST: cytoplasmic kinase domain of human IGF-1R (IGF-1R-GST) (Homo sapiens, UniProt P08069)
Construct: cytoplasmic kinase domain of human IGF-1R (amino acids 964-1370); GST (glutathione-S-transferase)
Sequence (P08069 964-1367 limits assumed): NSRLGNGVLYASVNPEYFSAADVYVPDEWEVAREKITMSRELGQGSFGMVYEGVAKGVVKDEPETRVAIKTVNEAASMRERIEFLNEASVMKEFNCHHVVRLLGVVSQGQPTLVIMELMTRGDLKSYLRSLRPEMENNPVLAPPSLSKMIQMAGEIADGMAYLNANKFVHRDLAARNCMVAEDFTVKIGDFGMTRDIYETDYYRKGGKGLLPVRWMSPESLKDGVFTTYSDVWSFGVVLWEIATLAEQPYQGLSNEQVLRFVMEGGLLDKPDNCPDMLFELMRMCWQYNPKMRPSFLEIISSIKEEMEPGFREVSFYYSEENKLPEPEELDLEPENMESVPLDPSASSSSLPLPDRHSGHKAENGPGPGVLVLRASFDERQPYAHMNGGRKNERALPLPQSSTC
ASSAY NAME: Insulin-like growth factor-1 receptor (IGF-1R) kinase assay (DELFIA)
CONDITION SET: IGF-1R-GST kinase activity, read-out: IGF1R IC50
Please go through the items and note down their pIC50.
Answers are plain numbers, as −log10 of the molar value.

Consider the following illustrative entries.
>>> df
                                   compound  test_value
0  CC1(C)C(=O)Nc2cccc(CNc3nc(Nc4ccc(C5CCN(C(=O)CN)CC5)cc4)ncc3Cl)c21        8.52
1  COc1cc(N2CCC(N3CCC(O)CC3)CC2)ccc1Nc1ncc(C(F)(F)F)c(NCc2cccc3c2C(C)(C)C(=O)N3)n1        9.00
2  COc1cc(N2CCN(C(=O)CCN3CCCC3)CC2)ccc1Nc1ncc(Cl)c(NCc2cccc3c2C(C)(C)C(=O)N3)n1        8.40

Dear colleague, could you please provide pIC50 for the compounds listed below?
1. COc1cc(C(=O)N2CCOCC2)ccc1Nc1ncc(C(F)(F)F)c(NCc2cccc3c2C(C)(C)C(=O)N3)n1
2. COc1cc(N2CCN(C3CCN(C(C)=O)CC3)CC2)ccc1Nc1ncc(C(F)(F)F)c(NCc2cccc3c2C(C)(C)C(=O)N3)n1
3. COc1cc(N2CC3CC2CN3C(C)C)ccc1Nc1ncc(C(F)(F)F)c(NCc2cccc3c2C(C)(C)C(=O)N3)n1 (stereo not drawn)

stdout:
[8.10, 8.70, 8.52]

###

Please go through the items and note down their EC50.
Tested on: TC-71 (Ewing's sarcoma) cells
ASSAY NAME: Cell proliferation assay, TC-71 (Alamar Blue)
Type: cell-based
CONDITION SET: 72 h with compound, EC50 ranges as class symbols

>>> print(df.to_string())
                                   molecule      test_value
0  CCc1cc(C2CCN(CC(C)(C)O)CC2)ccc1Nc1ncc(Cl)c(NCc2cccc3c2C(C)(C)C(=O)N3)n1 [Example I-378]    50 to 250 nM
1  COc1cc(C2CCCN(CCO)C2)ccc1Nc1ncc(Cl)c(NCc2cccc3c2C(C)(C)C(=O)N3)n1 (racemic) [Example I-372]         < 50 nM
2  CN(C)CC(=O)N1CCC(n2cc(Nc3ncc(Cl)c(NCc4cccc5c4C(C)(C)C(=O)N5)n3)cn2)CC1 [Example I-66]  250 to 3000 nM
3  Cc1cc(Nc2ncc(Cl)c(NCc3cccc4c3C(C)(C)C(=O)N4)n2)c(F)cc1C1CCN(CC(C)(C)O)CC1 [Example I-337]  250 to 3000 nM
4  Cc1cc(C2CCN(CC(C)(C)O)CC2)c(C)cc1Nc1ncc(C(F)(F)F)c(NCc2cccc3c2C(C)(C)C(=O)N3)n1 [Example I-312]    50 to 250 nM

Dear colleague, could you please provide EC50 for the molecules listed below?
1. CCNC(=O)N1CCC(c2ccc(Nc3ncc(Cl)c(NCc4cccc5c4C(C)(C)C(=O)N5)n3)c(C)c2)CC1 [Example I-293]
2. CCc1cc(C2CCN(CCOC)CC2)ccc1Nc1ncc(Br)c(NCc2cccc3c2C(C)(C)C(=O)N3)n1 [Example I-367]
3. COc1cc(N2CCN(CC(C)(C)O)CC2)ccc1Nc1ncc(Cl)c(NCc2cccc3c2C(C)(C)C(=O)N3)n1 [Example I-335]
4. Cc1cc(C2CCN(C(=O)C(C)(C)O)CC2)ccc1Nc1ncc(Cl)c(NCc2cccc3c2C(C)(C)C(=O)N3)n1 [Example I-297]
5. Cc1cc(C2CCN(C(N)=O)CC2)ccc1Nc1ncc(Cl)c(NCc2cccc3c2C(C)(C)C(=O)N3)n1 [Example I-294]

stdout:
["50 to 250 nM", "< 50 nM", "< 50 nM", "50 to 250 nM", "250 to 3000 nM"]
